The origin of these recorded values is patent US20250034275A1.

Target or test system: T1, human Trop-2 (on the surface of human cell lines) (human, UniProt P09758 27-323)
T1 sequence: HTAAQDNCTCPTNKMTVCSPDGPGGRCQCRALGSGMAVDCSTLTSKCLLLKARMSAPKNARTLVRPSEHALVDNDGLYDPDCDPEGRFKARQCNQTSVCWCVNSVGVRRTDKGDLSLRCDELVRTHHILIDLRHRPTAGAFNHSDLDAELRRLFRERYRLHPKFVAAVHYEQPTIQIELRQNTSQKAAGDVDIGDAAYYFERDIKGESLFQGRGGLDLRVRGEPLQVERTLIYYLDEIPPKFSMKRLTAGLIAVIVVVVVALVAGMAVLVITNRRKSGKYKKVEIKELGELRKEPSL
Protocol description: cell-based or functional assay
Property name: ADCC reporter (Jurkat-CD16a v158-NFAT-luciferase), target cell HCC1806, EC50 (nM)

- Binder: "ch-Ab35 (antibody, human IgG1, kappa, V domains shown, Mouse VH/VL on human IgG1 and human kappa constant regions; also called chimeric antibody of Ab35) VH: EVQLQQSGPDLVRPGASVKLSCKASGYTFTSSDINWVKQRPGQGLEWIGWIYPRDGSKKYNEKFKGKATLTVDTSSSTAYMEVHSLTSEDSAVYFCATRFATVVSNYGLDPWGQGTSVTVSS VL: AIVLTQSPAIMSASPGEKVTMTCSASSSVNYIYWYQRKPGSSPRLLIYDTSNLASGVPVRFSGSGSGTSYSLTISRMEAEDAATYYCQQWNSYPLTFGAGTKLELKR"
  Experimental result: 0.04
- Binder: "hz-Ab35-2.2 (antibody, human IgG1, kappa, V domains shown, Humanized antibody) VH: QVQLVQSGAEVKKPGASVKVSCKASGYTFTSSDINWVRQRPGQGLEWMGWIYPRDGSKKYNEKFKGRVTMTVDTSTSTVYMELSSLRSEDTAVYYCARRFATVVSNYGLDPWGQGTLVTVSS VL: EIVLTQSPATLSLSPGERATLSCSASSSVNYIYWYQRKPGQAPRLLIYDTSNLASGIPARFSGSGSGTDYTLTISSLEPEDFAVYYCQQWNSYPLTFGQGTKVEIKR"
  Experimental result: 0.26
- Binder: "hz-Ab35-2.1 (antibody, human IgG1, kappa, V domains shown, Humanized antibody) VH: QVQLVQSGAEVKKPGASVKVSCKASGYTFTSSDINWVRQRPGQGLEWMGWIYPRDGSKKYAQKFQGRVTMTVDTSTSTVYMELSSLRSEDTAVYYCATRFATVVSNYGLDPWGQGTLVTVSS VL: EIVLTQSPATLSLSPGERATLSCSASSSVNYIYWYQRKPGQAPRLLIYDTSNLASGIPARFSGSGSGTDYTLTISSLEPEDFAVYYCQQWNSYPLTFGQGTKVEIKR"
  Experimental result: 0.23
